Procedure details: Ex vivo biodistribution screen of 111In-labeled DOTA-TATE derivatives in normal mice
Parameters: species or system athymic nude mice
Condition: athymic nude, mouse, liver, iv, 1 ug per mouse, total radioactivity, normal athymic nude mice, 2 h post-injection, i.v. 1 μg, ex vivo, mean, n = 2–4, read-out: Liver uptake
Positions of bridges follow the written chain, without caps; N, C: chain ends. Non-standard residues stand in square brackets, D forms with d. Residues, ends and D or L forms follow the SMILES beside them. *: point of attachment. DOTA = O=C(O)CN1CCN(CC(=O)O)CCN(CC(=O)*)CCN(CC(=O)O)CC1
Measured tissue uptake at 2 h of individual entries
Express the result in %ID/g but write the number alone.

Compound	tissue uptake at 2 h, %ID/g
C[C@@H](O)[C@H](NC(=O)[C@@H]1CSSC[C@H](NC(=O)[C@@H](Cc2ccccc2)NC(=O)CN2CCN(CC(=O)O)CCN(CC(=O)O)CCN(CC(=O)O)CC2)C(=O)N[C@@H](Cc2ccc(O)cc2)C(=O)N[C@H](Cc2c[nH]c3ccccc23)C(=O)N[C@@H](CCCCN)C(=O)N[C@@H]([C@@H](C)O)C(=O)N1)C(=O)O [^111In-DOTA-TATE, metal not drawn, reference compound]	0.09
C[C@@H](O)[C@H](NC(=O)[C@@H]1CSSC[C@H](NC(=O)[C@@H](Cc2ccccc2)NC(=O)[C@@H](Cc2ccc(O)cc2)NC(=O)CNC(=O)CN2CCN(CC(=O)O)CCN(CC(=O)O)CCN(CC(=O)O)CC2)C(=O)N[C@@H](Cc2ccc(O)cc2)C(=O)N[C@H](Cc2c[nH]c3ccccc23)C(=O)N[C@@H](CCCCN)C(=O)N[C@@H]([C@@H](C)O)C(=O)N1)C(=O)O [^111In-DOTA-GY*-TATE, metal not drawn] ({DOTA}-G[dY][dF]CY[dW]KTCT-OH; disulfide 4-9)	0.17
C[C@@H](O)[C@H](NC(=O)[C@@H]1CSSC[C@H](NC(=O)[C@@H](Cc2ccccc2)NC(=O)[C@H](Cc2ccc(O)cc2)NC(=O)CNC(=O)CN2CCN(CC(=O)O)CCN(CC(=O)O)CCN(CC(=O)O)CC2)C(=O)N[C@@H](Cc2ccc(O)cc2)C(=O)N[C@H](Cc2c[nH]c3ccccc23)C(=O)N[C@@H](CCCCN)C(=O)N[C@@H]([C@@H](C)O)C(=O)N1)C(=O)O [^111In-DOTA-GY-TATE, metal not drawn] ({DOTA}-GY[dF]CY[dW]KTCT-OH; disulfide 4-9)	0.18

Here's the next entry for you.
Asked: Quick one: tissue uptake at 2 h for C[C@@H](O)[C@H](NC(=O)[C@@H]1CSSC[C@H](NC(=O)[C@@H](Cc2ccccc2)NC(=O)CCCC(=O)Nc2cc(COC(=O)N(C)CCNC(=O)CN3CCN(CC(=O)O)CCN(CC(=O)O)CCN(CC(=O)O)CC3)ccc2O[C@@H]2O[C@H](C(=O)O)[C@@H](O)[C@H](O)[C@H]2O)C(=O)N[C@@H](Cc2ccc(O)cc2)C(=O)N[C@H](Cc2c[nH]c3ccccc23)C(=O)N[C@@H](CCCCN)C(=O)N[C@@H]([C@@H](C)O)C(=O)N1)C(=O)O [^111In-DOTA-GlcA-TATE, metal not drawn] ?
Given back: 0.13
